Measured Ki values are reported for all entries that follow.
# targetOrSystem: tau fibrils (Homo sapiens)
# Sequence (P10636 560-692): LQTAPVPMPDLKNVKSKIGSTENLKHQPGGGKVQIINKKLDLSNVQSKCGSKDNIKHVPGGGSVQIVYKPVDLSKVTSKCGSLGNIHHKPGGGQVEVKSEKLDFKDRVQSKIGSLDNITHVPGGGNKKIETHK
# protocolSummary: biochemical

| compound | Ki / nM |
| --- | --- |
| CN(C)c1ccc(/C=C/C=C2C(=O)N(Cc3ccc([N+](=O)[O-])cc3)c3ccccc32)cc1 [Compound 28] | 90 |
| CN(C)c1ccc(/C=C/C=C2C(=O)N(Cc3ccccc3)c3ncccc32)cc1 [Compound 31] | 257 |
| COc1ccc(/C=C/C=C2C(=O)N(Cc3ccccc3)c3ccccc32)cc1 [Compound 24] | 718 |
| CN(C)c1ccc(/C=C/C=C2C(=O)N(Cc3ccc(N)cc3)c3ccccc32)cc1 [Compound 33] | 131 |
| O=C1Nc2ccccc2C1=C/C=C/c1ccccc1 [Compound 18, 3-(3-Phenylallylidene)indolin-2-one] | 522 |
| COc1ccc(CN2C(=O)C(=C/C=C/c3ccc(N(C)C)cc3)c3cccnc32)cc1 [Compound 32] | 204 |
